- measured on: Dopamine beta-hydroxylase (Bos taurus, UniProt P15101)
- Sequence (P15101 whole entry): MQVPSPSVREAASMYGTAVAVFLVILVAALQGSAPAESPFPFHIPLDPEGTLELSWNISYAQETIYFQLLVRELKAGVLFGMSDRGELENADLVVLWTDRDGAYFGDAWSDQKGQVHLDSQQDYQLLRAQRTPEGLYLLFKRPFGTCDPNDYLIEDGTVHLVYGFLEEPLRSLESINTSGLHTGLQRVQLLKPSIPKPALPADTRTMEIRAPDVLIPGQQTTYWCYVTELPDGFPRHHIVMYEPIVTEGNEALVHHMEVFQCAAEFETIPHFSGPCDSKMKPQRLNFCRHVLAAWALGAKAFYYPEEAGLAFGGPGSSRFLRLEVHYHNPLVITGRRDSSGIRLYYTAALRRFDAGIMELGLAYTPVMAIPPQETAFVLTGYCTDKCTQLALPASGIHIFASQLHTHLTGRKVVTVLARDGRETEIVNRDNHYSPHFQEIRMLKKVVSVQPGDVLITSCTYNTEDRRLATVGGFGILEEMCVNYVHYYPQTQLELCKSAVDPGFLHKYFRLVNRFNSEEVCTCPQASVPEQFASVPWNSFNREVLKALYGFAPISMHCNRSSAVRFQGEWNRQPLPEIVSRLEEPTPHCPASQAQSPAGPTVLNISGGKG
- assay explanation: KI value was determined from plots of 1/kinact(observed) vs 1/[inhibitor]
value kind: pKi
// pKi is dimensionless: -log10 of concentration (M)

Exercise: For the compound C#CC(CN)c1ccc(O)cc1 (single isomer, unassigned; (-)) , report pKi.
Key: 4.24

Exercise: Fill in pKi for record "Oc1ccc(CC2CC2)cc1"
Key: 1.92

Pending compound:
Exercise: Give pKi for C#CC(CN)c1ccc(O)cc1 (stereo in doubt; (+\-)3)
Key: 4.80
